Just for reference, PubChem BioAssay AID1345085 is where these values come from.

- Test system: PA-1
- experiment: Confirmatory qHTS for gynecologic anti-cancer compounds from libraries of approved drugs and bioactive compounds; note: nearly all actives have a fitted effect of over 55% in size
- condition-summary: gynecologic cancer cell panel viability, ATPlite luminescence, 48 h; series mostly up to 57.6 µM
Inconclusive results are not listed. The source made the active and inactive calls. Calls come from the whole dose curve; as a rule, active = well fitted cell-killing curve with a large enough effect; inconclusive = small, poorly fitted or top-dose-only effect, or effect the other way; inactive = no such curve, though single readings can be large or run the other way.
Choose the fitting class; nothing outside 1.0 = active, 0.0 = inactive is accepted.

Recorded results for 4 compounds are shown here.
// outcome(item) with item = CC(C)(C(=O)NCC(F)(F)C(F)(F)F)C(=O)NC1C(=O)Nc2ccccc2-c2ccccc21 (centres undefined) 1.0

// outcome(item) with item = CCN(CC)CCCC(C)Nc1ccnc2cc(Cl)ccc12 (centres undefined) 0.0

// outcome(item) with item = `COc1c(C)c2c(c(O)c1C/C=C(\C)CCC(=O)OCCN1CCOCC1)C(=O)OC2` 1.0

// outcome(item) with item = `CN(C)c1ccc(-c2nc3ncc(Cl)c(N4CCN(CC(=O)Nc5nccs5)CC4)c3[nH]2)cc1` 1.0

Further cases:
// outcome(item) with item = `Cn1cc(-c2[nH]c3cc(NC(=O)[C@H](N)C4CCCCC4)cc4c3c2C=NNC4=O)cn1` 1.0

// outcome(item) with item = `N=C(N)c1ccc(OCCCCCOc2ccc(C(=N)N)cc2)cc1` 1.0

// outcome(item) with item = `COc1cc(N2CCC(N(C)C)CC2)ccc1Nc1ncc(Cl)c(Nc2ccccc2P(C)(C)=O)n1` 1.0

// outcome(item) with item = Cc1cc(C(C)Nc2ccccc2C(=O)O)c2nc(N3CCOCC3)cc(=O)n2c1 (centres undefined) 1.0

----------
- Test system: PA-1
- experiment: Confirmatory qHTS for gynecologic anti-cancer compounds from libraries of approved drugs and bioactive compounds; note: nearly all actives have a fitted effect of over 55% in size
- condition-summary: gynecologic cancer cell panel viability, ATPlite luminescence, 48 h; series mostly up to 57.6 µM
Results filed as inconclusive are left out. Active and inactive are the calls of the source. Calls follow the shape of the dose curve; as a rule, active = well fitted cell-killing curve with a large enough effect; inconclusive = small, poorly fitted or top-dose-only effect, or effect the other way; inactive = no such curve, though single readings can be large or run the other way.
Choose the fitting class; nothing outside active, inactive is accepted.

Recorded results for 4 compounds are shown here.
// outcome(item) with item = `COc1ccc2cc3[n+](cc2c1OC)CCc1cc2c(cc1-3)OCO2` active

// outcome(item) with item = `O=C(NOC[C@H](O)CO)c1ccc(F)c(F)c1Nc1ccc(I)cc1F` active

// outcome(item) with item = `O=c1[nH]c(=O)n([C@H]2C[C@H](O)[C@@H](CO)O2)cc1C(F)(F)F` active

// outcome(item) with item = `Cn1cc(-c2ccc3ncc(Cc4ccc5ncccc5c4)n3n2)cn1` inactive

Now look at this entry.
// outcome(item) with item = Cc1cnc(Nc2ccc(F)cc2Cl)nc1-c1c[nH]c(C(=O)NC(CO)c2cccc(Cl)c2)c1 (stereo not given) active

----------
- Test system: PA-1
- experiment: Confirmatory qHTS for gynecologic anti-cancer compounds from libraries of approved drugs and bioactive compounds; note: nearly all actives have a fitted effect of over 55% in size
- condition-summary: gynecologic cancer cell panel viability, ATPlite luminescence, 48 h; series mostly up to 57.6 µM
Records with an inconclusive call do not appear. The source made the active and inactive calls. The call rests on the fitted dose curve; in most records, active means well fitted cell-killing curve with a large enough effect; inconclusive means small, poorly fitted or top-dose-only effect, or effect the other way; inactive means no such curve, though single readings can be large or run the other way.
Choose the fitting class; nothing outside Y (active), N (inactive) is accepted.

Recorded results for 3 compounds are shown here.
// outcome(item) with item = `Nc1nccc(Oc2ccc(NC(=O)c3c[nH]cc(-c4ccc(F)cc4)c3=O)cc2F)c1Cl` Y

// outcome(item) with item = CNC1CCC(N(Cc2cccc(-c3ccncc3)c2)C(=O)c2sc3ccccc3c2Cl)CC1 (centres undefined) Y

// outcome(item) with item = `CC[C@@]1(O)C(=O)OCc2c1cc1n(c2=O)Cc2cc3c(CN(C)C)c(O)ccc3nc2-1` Y

Further cases:
// outcome(item) with item = CCCS(=O)c1ccc2nc(NC(=O)OC)[nH]c2c1 (centres undefined) Y

// outcome(item) with item = `CN(NC(=O)CC(=O)NN(C)C(=S)c1ccccc1)C(=S)c1ccccc1` Y

// outcome(item) with item = `Cc1cc(Nc2cc(N3CCN(C)CC3)nc(/C=C/c3ccccc3)n2)n[nH]1` Y

// outcome(item) with item = Cc1ccc(C(=O)N(CCCN)C(c2nc3cc(Cl)ccc3c(=O)n2Cc2ccccc2)C(C)C)cc1 (centres undefined) Y

// outcome(item) with item = `CC1=C(/C=C/C(C)=C/C=C/C(C)=C/C(=O)Nc2ccc(O)cc2)C(C)(C)CCC1` Y

// outcome(item) with item = CCC1C(=O)N(C)c2cnc(Nc3ccc(C(=O)NC4CCC(N5CCN(CC6CC6)CC5)CC4)cc3OC)nc2N1C(C)C (centres undefined) Y

// outcome(item) with item = `O=C(c1ccc(F)c(F)c1Nc1ccc(I)cc1F)N1CC(O)([C@@H]2CCCCN2)C1` Y

// outcome(item) with item = `CC(C)C[C@H](NC(=O)[C@H](CCc1ccccc1)NC(=O)CN1CCOCC1)C(=O)N[C@@H](Cc1ccccc1)C(=O)N[C@@H](CC(C)C)C(=O)[C@@]1(C)CO1` Y

----------
- Tested on: PA-1
- experiment: Confirmatory qHTS for gynecologic anti-cancer compounds from libraries of approved drugs and bioactive compounds; note: nearly all actives have a fitted effect of over 55% in size
- condition-summary: gynecologic cancer cell panel viability, ATPlite luminescence, 48 h; series mostly up to 57.6 µM
Results filed as inconclusive are left out. Activity calls are given as the source filed them. Calls come from the whole dose curve; as a rule, active = well fitted cell-killing curve with a large enough effect; inconclusive = small, poorly fitted or top-dose-only effect, or effect the other way; inactive = no such curve, though single readings can be large or run the other way.
Choose the fitting class; nothing outside 1 (yes) (active), 0 (no) (inactive) is accepted.

Recorded results for 6 compounds are shown here.
// outcome(item) with item = `Cc1cnc(Nc2cccc(CN3CCOCC3)c2)nc1Nc1cccc(S(=O)(=O)NC(C)(C)C)c1` 1 (yes)

// outcome(item) with item = `O=C(CCCCCCC(=O)Nc1ccccc1)NO` 1 (yes)

// outcome(item) with item = `C#C[C@]1(O)CC[C@H]2[C@@H]3CCC4=CC(=O)CC[C@@H]4[C@H]3CC[C@@]21CC` 0 (no)

// outcome(item) with item = `Cc1[nH]c2ccccc2c1CCNCc1ccc(/C=C/C(=O)NO)cc1` 1 (yes)

// outcome(item) with item = `COc1ccc(-c2cc3nccn3c(Nc3ncccc3C(N)=O)n2)cc1OC` 1 (yes)

// outcome(item) with item = COc1cc(F)c(F)c(Nc2ccc(I)cc2F)c1NS(=O)(=O)C1(CC(O)CO)CC1 (stereo not given) 0 (no)

Further cases:
// outcome(item) with item = `CNC(=O)c1nn(C)c2c1C(C)(C)Cc1cnc(Nc3ccc(N4CCN(C)CC4)cc3)nc1-2` 1 (yes)

// outcome(item) with item = `CNC(=O)c1ccccc1Sc1ccc2c(/C=C/c3ccccn3)n[nH]c2c1` 1 (yes)

// outcome(item) with item = `O=C(c1ccc(/C=C/c2n[nH]c3ccccc23)cc1)N1CCNCC1` 1 (yes)

// outcome(item) with item = `COc1cc2c(c(OC)c1OC)-c1ccc(OC)c(=O)cc1[C@@H](NC(C)=O)CC2` 1 (yes)

// outcome(item) with item = `Cc1ccn(-c2ccc(-c3ncco3)cc2)c(=O)c1-c1ccc2nc(N)ncc2c1` 1 (yes)

// outcome(item) with item = `Nc1ccc(C(=O)Nc2cccc(-c3nc(N4CCOCC4)c4oc5ncccc5c4n3)c2)cn1` 1 (yes)

// outcome(item) with item = `CN(c1nccc(=O)[nH]1)C1CCN(c2nc3ccccc3n2Cc2ccc(F)cc2)CC1` 0 (no)

// outcome(item) with item = `C[C@]12CCC(=O)C=C1CC[C@@H]1[C@@H]2[C@@H](O)C[C@@]2(C)[C@H]1CC[C@]2(O)C(=O)CO` 1 (yes)

// outcome(item) with item = `C=CC(=O)Nc1cc2c(Nc3ccc(F)c(Cl)c3)ncnc2cc1OCCCN1CCOCC1` 1 (yes)

// outcome(item) with item = CC(=O)OC12COC1CC(O)C1(C)C(=O)C(O)C3=C(C)C(OC(=O)C(O)C(NC(=O)OC(C)(C)C)c4ccccc4)CC(O)(C(OC(=O)c4ccccc4)C21)C3(C)C (stereo not given) 1 (yes)

// outcome(item) with item = `OC[C@H]1O[C@@H](n2cnc3c(=S)nc[nH]c32)[C@H](O)[C@@H]1O` 1 (yes)

// outcome(item) with item = CN(C)C/C=C/C(=O)Nc1cc2c(Nc3ccc(F)c(Cl)c3)ncnc2cc1OC1CCOC1 (stereo not given) 1 (yes)

// outcome(item) with item = COc1cc(-c2nn(C3CCC(N4CCN(C(C)=O)CC4)CC3)c3ncnc(N)c23)ccc1NC(=O)c1cc2ccccc2n1C (stereo not given) 1 (yes)

// outcome(item) with item = CC(Oc1cc(-n2cnc3ccc(CN4CCN(C)CC4)cc32)sc1C(N)=O)c1ccccc1C(F)(F)F (stereo not given) 1 (yes)

----------
- System: PA-1
- experiment: Confirmatory qHTS for gynecologic anti-cancer compounds from libraries of approved drugs and bioactive compounds; note: nearly all actives have a fitted effect of over 55% in size
- condition-summary: gynecologic cancer cell panel viability, ATPlite luminescence, 48 h; series mostly up to 57.6 µM
Inconclusive results are not listed. The source made the active and inactive calls. Calls follow the shape of the dose curve; as a rule, active = well fitted cell-killing curve with a large enough effect; inconclusive = small, poorly fitted or top-dose-only effect, or effect the other way; inactive = no such curve, though single readings can be large or run the other way.
Choose the fitting class; nothing outside active, inactive is accepted.

Recorded results for 5 compounds are shown here.
// outcome(item) with item = `CC(C)Oc1ccc2c(=O)c(-c3ccccc3)coc2c1` active

// outcome(item) with item = `CC(C)n1nc(-c2cc3cc(O)ccc3[nH]2)c2c(N)ncnc21` active

// outcome(item) with item = CCN(CC)CCCC(C)Nc1c2ccc(Cl)cc2nc2ccc(OC)cc12 (centres undefined) active

// outcome(item) with item = Cc1nc(NC(=O)N2CCCC2C(N)=O)sc1-c1csc(C(C)(C)C)n1 (centres undefined) active

// outcome(item) with item = C1CCC(C(CC2CCCCN2)C2CCCCC2)CC1 (centres undefined) active

Further cases:
// outcome(item) with item = `Nc1ccccc1NC(=O)c1ccc(CNc2nccc(-c3cccnc3)n2)cc1` active

// outcome(item) with item = COc1cccc2cc(-c3nc(C4CCC(C(=O)O)CC4)n4ncnc(N)c34)[nH]c12 (centres undefined) active

// outcome(item) with item = COc1cc2c(cc1-c1c(C)noc1C)ncc1[nH]c(=O)n(C(C)c3ccccn3)c12 (centres undefined) active

// outcome(item) with item = `CN1CCN(c2ccc(OC(F)(F)F)c(Nc3ncc4c(n3)-c3c(c(C(N)=O)nn3CCO)CC4)c2)CC1` active

// outcome(item) with item = `Cc1cnc(Nc2ccc(OCCN3CCCC3)cc2)nc1Nc1cccc(S(=O)(=O)NC(C)(C)C)c1` active
